Recorded values, source patent US9969775B2.

Each entry below lists one item and its recorded selectivity ratio CGRP/AM2 value.
SUBJECT OF TEST: hAM2 receptor (CALCRL:RAMP3) (Homo sapiens, UniProt O60896+Q16602)
Construct: expressed in transfected cells; host or cells: GeneBLAzer CALCRL:RAMP3-CRE-bla Freestyle 293F
Sequence (Q16602 23-461): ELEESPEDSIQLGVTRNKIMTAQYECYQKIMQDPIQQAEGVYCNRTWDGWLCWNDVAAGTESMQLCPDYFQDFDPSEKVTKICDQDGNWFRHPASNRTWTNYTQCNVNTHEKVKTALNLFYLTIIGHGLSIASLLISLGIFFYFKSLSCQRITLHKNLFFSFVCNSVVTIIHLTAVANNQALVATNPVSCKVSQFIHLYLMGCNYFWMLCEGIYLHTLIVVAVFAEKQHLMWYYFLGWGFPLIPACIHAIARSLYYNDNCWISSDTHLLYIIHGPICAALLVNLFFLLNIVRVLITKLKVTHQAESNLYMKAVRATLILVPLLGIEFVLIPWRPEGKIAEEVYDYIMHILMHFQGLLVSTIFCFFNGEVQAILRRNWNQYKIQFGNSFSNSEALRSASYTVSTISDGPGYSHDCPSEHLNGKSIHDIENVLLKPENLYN
Sequence (O60896 24-148): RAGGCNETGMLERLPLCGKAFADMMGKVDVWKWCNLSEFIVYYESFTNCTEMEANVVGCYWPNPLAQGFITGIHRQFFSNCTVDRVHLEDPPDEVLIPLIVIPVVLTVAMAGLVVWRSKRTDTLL
METHOD DESCRIPTION: AM2 receptor antagonist activity measured by cAMP assay (HTRF)
Type: cell-based
CONDITION LABEL: selectivity ratio for hCGRP over hAM2, calculated from the IC50 values
Numbered stars: 1 amine (or outer) side, 2 acyl side, 3 side chain; on linkers, the order of the positions; unused ones are H or OH. Bridge positions count the residues as written; N and C are the ends. Square brackets hold non-standard residues; d marks the D form. Peptide text beside a SMILES is read from it. * marks the point of attachment. Phe(3-CONH2) = NC(=O)c1cccc(C[C@H](N)C(=O)O)c1; Phe(2-CONH2) = NC(=O)c1ccccc1C[C@H](N)C(=O)O; X3 = NCc1ccccc1C[C@H](N[*:1])C(=O)[*:2]; Lys(Me2) = CN(C)CCCC[C@H](N)C(=O)O; Orn(iPr) = CC(C)NCCC[C@H](N)C(=O)O; Oxazole2carbonyl = O=C(c1ncco1)*; 3Pal = N[C@@H](Cc1cccnc1)C(=O)O; ΔPro = O=C(O)[C@@H]1C=CCN1; Orn = NCCC[C@H](N)C(=O)O; X2 = Cc1n[nH]c(C(=O)*)n1; X1 = O=C(c1ncccc1F)*
Simply state the number, no unit and no words.

Cc1n[nH]c(C(=O)N[C@@H](C(=O)N[C@@H](Cc2ccc(O)cc2)C(=O)N[C@H]2CSSC[C@@H](C(=O)N[C@@H](Cc3cccnc3)C(N)=O)NC(=O)[C@H](Cc3ccccc3CN)NC(=O)[C@@H]3CCCN3C(=O)CNC(=O)[C@H](C(C)C)NC(=O)[C@H](CC(=O)O)NC(=O)[C@H](CCCNC(=N)N)NC2=O)C(C)C)n1 [Compound 53] (X2-[dV]YCRDVGP[X3]C[3Pal]-NH2; disulfide 3-10) : 8130
CC(C)[C@@H]1NC(=O)[C@H](CC(=O)O)NC(=O)[C@H](CCCNC(=O)[C@@H](N)CCCCN(C)C)NC(=O)[C@@H](NC(=O)[C@H](Cc2ccc(O)cc2)NC(=O)[C@H](NC(=O)c2ncco2)C(C)C)CSSC[C@@H](C(=O)N[C@@H](Cc2cccnc2)C(N)=O)NC(=O)[C@H](Cc2ccccc2)NC(=O)[C@@H]2CCCN2C(=O)CNC1=O [Compound 44] (Oxazole2carbonyl-[dV]YC[Orn](Lys(Me2))DVGPFC[3Pal]-NH2; disulfide 3-10) : 668
Cc1n[nH]c(C(=O)N[C@@H](C(=O)N[C@@H](Cc2ccc(O)cc2)C(=O)N[C@H]2CSSC[C@@H](C(=O)N[C@@H](Cc3cccnc3)C(N)=O)NC(=O)[C@H](Cc3ccccc3)NC(=O)[C@@H]3CCCN3C(=O)CNC(=O)[C@H](C(C)C)NC(=O)[C@H](CC(=O)O)NC(=O)[C@H](CCCNC(=N)N)NC2=O)C(C)C)n1 [Compound 48] (X2-[dV]YCRDVGPFC[3Pal]-NH2; disulfide 3-10) : 5610
CC(C)[C@@H]1NC(=O)[C@H](CC(=O)O)NC(=O)[C@H](CCCNC(=N)N)NC(=O)[C@@H](NC(=O)[C@H](Cc2ccc(O)cc2)NC(=O)[C@H](NC(=O)c2ncccc2F)C(C)C)CSSC[C@@H](C(=O)N[C@@H](Cc2cccnc2)C(N)=O)NC(=O)[C@H](Cc2ccccc2)NC(=O)[C@@H]2CCCN2C(=O)CNC1=O [Compound 17] (X1-[dV]YCRDVGPFC[3Pal]-NH2; disulfide 3-10) : 148

Please examine the following record next.
For the compound shown here, CC(C)NCCC[C@@H]1NC(=O)[C@@H](NC(=O)[C@H](Cc2ccccc2C(N)=O)NC(=O)[C@H](NC(=O)c2ncco2)C(C)C)CSSC[C@@H](C(=O)N[C@@H](Cc2cccnc2)C(N)=O)NC(=O)[C@H](Cc2cccc(C(N)=O)c2)NC(=O)[C@@H]2C=CCN2C(=O)CNC(=O)[C@H](C(C)C)NC(=O)[C@H](CC(=O)O)NC1=O [Compound 65] (Oxazole2carbonyl-[dV][Phe(2-CONH2)]C[Orn(iPr)]DVG[ΔPro][Phe(3-CONH2)]C[3Pal]-NH2; disulfide 3-10) , give the reported selectivity ratio CGRP/AM2.
5492
